System: Mammarenavirus lassaense
testDetails: Inhibition of Lassa virus N-terminal His-tagged NP exonuclease domain (342 to 569 residues) expressed in Escherichia coli Tuner (DE3) using FAM-labeled 20-nucleotide ssRNA preincubated for 10 mins followed by substrate addition measured after 60 mins by PAGE based […]
measuredAttribute: INH (mM)
Field: numeric (mM). Do not append units.

The cases that follow already have their INH on record.
| molecule | INH, mM |
| --- | --- |
| O=C(O)CC(O)(CC(=O)O)C(=O)O | 1 |
| O=C(O)c1ccc(Nc2nc(Cl)nc(Cl)n2)cc1-c1c2ccc(=O)cc-2oc2cc(O)ccc12 | 1 |
| O=C(O)c1cc2cccc([N+](=O)[O-])c2[nH]1 | 1 |
| O=C(O)C1=CC(=C(c2ccc(O)c(C(=O)O)c2)c2ccc(O)c(C(=O)O)c2)C=CC1=O [AURINTRICARBOXYLIC ACID] | 0.01 |
| O=C(O)c1cc(SSc2ccc([N+](=O)[O-])c(C(=O)O)c2)ccc1[N+](=O)[O-] | 1 |

Identify INH associated with the molecule O=S(=O)(O)c1cc(O)c2c(O)c(/N=N/c3cccc4ccccc34)c(S(=O)(=O)O)cc2c1
0.1

Recall and state the measured INH for O=C(N[C@H](CC1CCCCC1)C(=O)O)OCC1c2ccccc2-c2ccccc21 .
1

###

systemTested: 3'-5' exonuclease crn-4 (Caenorhabditis elegans) (UniProt Q10905)
Sequence (whole entry): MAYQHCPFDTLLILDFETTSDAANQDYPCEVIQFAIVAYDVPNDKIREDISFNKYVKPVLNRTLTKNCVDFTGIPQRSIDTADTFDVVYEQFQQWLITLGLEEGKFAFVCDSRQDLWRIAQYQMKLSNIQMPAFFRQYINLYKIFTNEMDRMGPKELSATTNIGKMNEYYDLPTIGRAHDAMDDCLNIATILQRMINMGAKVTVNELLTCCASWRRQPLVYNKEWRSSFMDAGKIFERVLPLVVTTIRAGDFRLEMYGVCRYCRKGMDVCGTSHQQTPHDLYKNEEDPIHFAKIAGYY
testDetails: Inhibition of GST-tagged Caenorhabditis elegans CRN-4 exonuclease activity expressed in Escherichia coli BL21 (DE3) pLysS preincubated for 10 mins followed by [gamma-32P]ATP labelled 11-nucleotide ssRNA substrate addition for 30 mins by PAGE based autoradiography
In this section, each of the compounds is paired with its reported INH.
Report the figure in mM without appending any unit label.

The examples below pair each entry with its known result.
| compound | obsValue |
| --- | --- |
| O=C(N[C@H](CC1CCCCC1)C(=O)O)OCC1c2ccccc2-c2ccccc21 | 1 |
| O=C(O)c1cc(SSc2ccc([N+](=O)[O-])c(C(=O)O)c2)ccc1[N+](=O)[O-] | 0.1 |
| O=C(O)C1=CC(=C(c2ccc(O)c(C(=O)O)c2)c2ccc(O)c(C(=O)O)c2)C=CC1=O [AURINTRICARBOXYLIC ACID] | 0.1 |

For the compound O=S(=O)(O)c1cc(O)c2c(O)c(/N=N/c3cccc4ccccc34)c(S(=O)(=O)O)cc2c1 , give its reported INH.
0.01

For O=C(O)c1ccc(Nc2nc(Cl)nc(Cl)n2)cc1-c1c2ccc(=O)cc-2oc2cc(O)ccc12 , write its INH.
1
